# method-description: qHTS for differential inhibitors of proliferation of Plasmodium falciparum line 7G8 (AID 1815);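 also: parasite growth measured after three days of incubation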
# condition-context: Plasmodium falciparum 7G8 proliferation inhibition; series mostly up to 28.7 µM
Inconclusive results are not listed. Active and inactive are the calls of the source. Calls follow the shape of the dose curve; as a rule, active = well fitted curve in the direction sought with a large enough effect; inconclusive = small, poorly fitted or top-dose-only effect, or another doubt; inactive = no such curve, though single readings can be large or run the other way.
I would appreciate it if you answered using one of these outcomes: active, inactive

## Input For this molecule, state the assay outcome: "CN(C)CCCCSC(=N)N"
## Output inactive

## Input For this molecule, state the assay outcome: "O=Nc1c(-c2c(O)[nH]c3ccccc23)[nH]c2ccccc12"
## Output active

## Input For this molecule, state the assay outcome: "C1CCC(N=C(NC23CC4CC(CC(C4)C2)C3)N2CCOCC2)CC1"
## Output active

## Input For this molecule, state the assay outcome: "S=C(Nc1ccccc1)Nc1nccs1"
## Output active

## Input For this molecule, state the assay outcome: "O=C(Nc1cc(C(=O)Nc2ccc(S(=O)(=O)O)cc2S(=O)(=O)O)cc(C(=O)Nc2ccc(S(=O)(=O)O)cc2S(=O)(=O)O)c1)Nc1cc(C(=O)Nc2ccc(S(=O)(=O)O)cc2S(=O)(=O)O)cc(C(=O)Nc2ccc(S(=O)(=O)O)cc2S(=O)(=O)O)c1"
## Output inactive

## Input For this molecule, state the assay outcome: "COc1ccc2c(c1)c(CC(=O)N1CCOCC1)c(C)n2C(=O)c1ccc(Cl)cc1"
## Output active

## Input For this molecule, state the assay outcome: "COc1cc2c(cc1C(F)(F)F)N(C(=O)Nc1cc(F)cc(-c3cccnc3)c1)CC2"
## Output active

## Input For this molecule, state the assay outcome: "CCCCCCCCCCCCC/C=C/[C@@H](O)[C@@H](N)CO"
## Output inactive

## Input For this molecule, state the assay outcome: "C[N+](C)(C)CCC(=O)c1cccc2ccccc12"
## Output inactive
